System: rLipGMTB
Assay: Inhibition of rLipGMTB, enzyme-inhibitor pre-incubation method, residual activity on pNP-C6
Type: biochemical
Conditions: inhibitor molar excess xI = 4; 30-min incubation at 25°C; substrate pNP-C6
Property Label: % inhibition xI = 4 (%)
Give the quantity in %, number only.

{"columns": ["Compound", "Test System", "Unit Info", "% inhibition xI = 4"],
 "data": [
  ["CC(C)COc1nn(-c2ccc(Oc3ccccc3)cc2)c(=O)o1", "rLipGMTB", "%", 40.5],
  ["CCCCCCOc1nn(-c2ccccc2)c(=O)o1", "rLipGMTB", "%", 58.5],
  ["CCCCCCCCCCCCC1CCP(=O)(OC)OC(C)=C1C(=O)OC (centres unmarked)", "rLipGMTB", "%", 3.2],
  ["CCCCCCCCCCCCCCCCOP1(=O)OCCC(C(=O)OC)=C(C)O1 (centres unmarked)", "rLipGMTB", "%", 66.4]
]}

Turning now to a further compound:
% inhibition xI = 4 lookup needed for CCCCCCCCCCC[C@@H](C[C@@H]1OC(=O)[C@H]1CCCCCC)OC(=O)[C@H](CC(C)C)NC=O [Orlistat, reference compound] , thanks.
10.8

* * *

Test system: M. smegmatis lipGMS::Hyg CompMTB
Test: microbe, parasite or virus in culture
Assay type: cell-based
Conditions: MIC50 of lipGMS::Hyg CompMTB strain versus WT

{"columns": ["Compound", "Fold change compared with WT"],
 "data": [
  ["NNC(=O)c1ccncc1", "×1.3"],
  ["CCCCCCCCCCC[C@@H](C[C@@H]1OC(=O)[C@H]1CCCCCC)OC(=O)[C@H](CC(C)C)NC=O [Orlistat, reference compound]", "×1.6"],
  ["CO[C@H]1/C=C/O[C@@]2(C)Oc3c(C)c(O)c4c(O)c(c(/C=N/N5CCN(C)CC5)c(O)c4c3C2=O)NC(=O)/C(C)=C\\C=C\\[C@H](C)[C@H](O)[C@@H](C)[C@@H](O)[C@@H](C)[C@H](OC(C)=O)[C@@H]1C", "×1.3"],
  ["CCCCCCCCCCCCCCCCOP1(=O)OCCC(C(=O)OC)=C(C)O1 (stereo not shown)", "×1.1"]
]}

* * *

Measured % inhibition xI = 100, listed per entry.
System: rLipGMTB
Assay: Inhibition of rLipGMTB, enzyme-inhibitor pre-incubation method, residual activity on pNP-C6
Format: biochemical
Settings: inhibitor molar excess xI = 100; 30-min incubation at 25°C; substrate pNP-C6
Give the figure together with its unit, number first.

Here's what some known entries look like.
{"columns": ["Molecule", "Property Label", "Value"],
 "data": [
  ["CCCCCCCCCCCCCCCCOP1(=O)OCCC(C(=O)OC)=C(C)O1 (stereo not drawn) [CyC17]", "% inhibition xI = 100", "95.4 ± 2.6%"],
  ["CCCCCCCCCCC[C@@H](C[C@@H]1OC(=O)[C@H]1CCCCCC)OC(=O)[C@H](CC(C)C)NC=O [Orlistat, reference compound]", "% inhibition xI = 100", "69.5 ± 5.3%"],
  ["CC(C)COc1nn(-c2ccc(Oc3ccccc3)cc2)c(=O)o1 [iBpPPOX]", "% inhibition xI = 100", "60.6 ± 0.22%"],
  ["CCCCCCCCCCC1CCP(=O)(OC)OC(C)=C1C(=O)OC (stereo not drawn) [CyC7β]", "% inhibition xI = 100", "57.6 ± 2.0%"],
  ["CCCCCCCCCCC1CCP(=O)(OC)OC(C)=C1C(=O)OC (stereo not drawn) [CyC7α]", "% inhibition xI = 100", "81.4 ± 1.6%"],
  ["CCCCCCOc1nn(-c2ccc(Oc3ccccc3)cc2)c(=O)o1 [HpPPOX]", "% inhibition xI = 100", "73.8 ± 1.0%"],
  ["CCCCCCOc1nn(-c2ccccc2)c(=O)o1 [HPOX]", "% inhibition xI = 100", "93.8 ± 5.7%"],
  ["CCCCCCCCCCCCC1CCP(=O)(OC)OC(C)=C1C(=O)OC (stereo not drawn) [CyC8β]", "% inhibition xI = 100", "32.0 ± 1.5%"]
]}

Turning now to a further molecule:
Provide the documented % inhibition xI = 100 with rLipGMTB as the system for COc1nn(-c2cccc(Oc3ccccc3)c2)c(=O)o1 [MmPPOX]
82.0 ± 3.8%

* * *

Tested on: rLipGMTB
Experiment: Inhibition of rLipGMTB, enzyme-inhibitor pre-incubation method, residual activity on pNP-C6
Format: biochemical
Settings: inhibitor molar excess xI = 4; 30-min incubation at 25°C; substrate pNP-C6
Property Label: % inhibition xI = 4
Give the figure together with its unit, number first.

Here's what some known entries look like.
{"columns": ["Molecule", "Test System", "Property Label", "Value"],
 "data": [
  ["COc1nn(-c2cccc(Oc3ccccc3)c2)c(=O)o1 [MmPPOX]", "rLipGMTB", "% inhibition xI = 4", "54.1 ± 1.5%"],
  ["CCCCCCCCCCC1CCP(=O)(OC)OC(C)=C1C(=O)OC (stereo not drawn) [CyC7α]", "rLipGMTB", "% inhibition xI = 4", "47.4 ± 0.81%"],
  ["CCCCCCOc1nn(-c2ccc(Oc3ccccc3)cc2)c(=O)o1 [HpPPOX]", "rLipGMTB", "% inhibition xI = 4", "61.8 ± 4.7%"]
]}

Turning now to a further molecule:
% inhibition xI = 4 lookup needed for CCCCCCCCCCC1CCP(=O)(OC)OC(C)=C1C(=O)OC (stereo not drawn) [CyC7β] , thanks.
7.9 ± 0.72%

* * *

Tested on: rLipGMTB
Assay: Inhibition of rLipGMTB, enzyme-inhibitor pre-incubation method, residual activity on pNP-C6
Type: biochemical
Settings: inhibitor molar excess leading to 50% enzyme inhibition; 30-min incubation at 25°C; substrate pNP-C6
Measured xI50, listed per entry.
Returns: the value as a bare number; no unit string appended.

xI50 lookup needed for CCCCCCCCCCCCCCCCOP1(=O)OCCC(C(=O)OC)=C(C)O1 (stereo not drawn) , thanks.
0.98

xI50 lookup needed for "CCCCCCOc1nn(-c2ccc(Oc3ccccc3)cc2)c(=O)o1" , thanks.
3.5

* * *

Measured xI50, listed per entry.
System: rLipGMTB
Experiment: Inhibition of rLipGMTB, enzyme-inhibitor pre-incubation method, residual activity on pNP-C6
Assay type: biochemical
Conditions: inhibitor molar excess leading to 50% enzyme inhibition; 30-min incubation at 25°C; substrate pNP-C6
Returns: the value as a bare number; no unit string appended.

{"columns": ["Compound", "xI50"],
 "data": [
  ["COc1nn(-c2cccc(Oc3ccccc3)c2)c(=O)o1", 3.1],
  ["CCCCCCCCCCC[C@@H](C[C@@H]1OC(=O)[C@H]1CCCCCC)OC(=O)[C@H](CC(C)C)NC=O [Orlistat, reference compound]", 15.2]
]}

Provide the documented xI50 with rLipGMTB as the system for CCCCCCCCCCC1CCP(=O)(OC)OC(C)=C1C(=O)OC (stereo not drawn) [CyC7β]
48.1

Provide the documented xI50 with rLipGMTB as the system for "CC(C)COc1nn(-c2ccc(Oc3ccccc3)cc2)c(=O)o1"
14.7

Provide the documented xI50 with rLipGMTB as the system for "CCCCCCOc1nn(-c2ccccc2)c(=O)o1"
2.9

Provide the documented xI50 with rLipGMTB as the system for CCCCCCCCCCC1CCP(=O)(OC)OC(C)=C1C(=O)OC (stereo not drawn) [CyC7α]
5.0

The values you see were collected from paper PMC6435540.
